Measurement notes: Hepatocyte (Hep) intrinsic clearance, human
Type: in vitro ADME
Condition parameters: hepatocytes
hepatocyte CLint values, listed per item
Unit µL/min/1e6 cells implied. Number only.

Would you please look over these solved cases?
>>> recorded_result("C[C@H](Nc1nc(C(=O)NC[C@@H](C)O)c2sccc2n1)c1cncc(F)c1 [Example Z190]")
10.1
>>> recorded_result("CCNC(=O)c1nc(N[C@@H](C)c2ccccn2)nc2ccsc12 [Example Z111]")
8.64
>>> recorded_result("C[C@H](Nc1nc(C(=O)N2CC(F)(F)C2)c2sccc2n1)c1cccnc1 [Example Z32]")
63.2
>>> recorded_result("O=C(c1nc(NCc2cncc(F)c2)nc2ccsc12)N1CC(F)(F)C1 [Example Z97]")
41.3
>>> recorded_result("C[C@H](Nc1nc(C(=O)N2CCC2)c2sccc2n1)c1ccccn1 [Example Z90]")
6.32

Value of measured hepatocyte CLint for the entry CO[C@@H]1CCN(C(=O)c2nc(N[C@@H](C)c3cccnc3)nc3ccsc23)C1 [Example Z19] : 12.9

Value of measured hepatocyte CLint for the entry C[C@H](Nc1nc(C(=O)N2CC[C@@H](F)C2)c2sccc2n1)c1ccccn1 [Example Z52] : 12.7

Value of measured hepatocyte CLint for the entry C[C@H](Nc1nc(C(=O)N2CC(F)(F)C2)c2sccc2n1)c1ccccn1 [Example Z92] : 45.2

Value of measured hepatocyte CLint for the entry O=C(c1nc(NCc2cncc(F)c2)nc2ccsc12)N1CC(O)C1 [Example Z109] : 4.11

Value of measured hepatocyte CLint for the entry COc1ccc(CNC(=O)c2nc(N[C@@H](C)c3ccccn3)nc3ccsc23)cn1 [Example Z16] : 14.5

Value of measured hepatocyte CLint for the entry CNc1cc2nc(N[C@@H](C)c3cncc(F)c3)nc(C(=O)N3CC[C@H](O)C3)c2s1 [Example Z197] : 3.34

* * *

System name: adenosine A2A receptor (Homo sapiens (Human))
Sequence (P29274 whole entry): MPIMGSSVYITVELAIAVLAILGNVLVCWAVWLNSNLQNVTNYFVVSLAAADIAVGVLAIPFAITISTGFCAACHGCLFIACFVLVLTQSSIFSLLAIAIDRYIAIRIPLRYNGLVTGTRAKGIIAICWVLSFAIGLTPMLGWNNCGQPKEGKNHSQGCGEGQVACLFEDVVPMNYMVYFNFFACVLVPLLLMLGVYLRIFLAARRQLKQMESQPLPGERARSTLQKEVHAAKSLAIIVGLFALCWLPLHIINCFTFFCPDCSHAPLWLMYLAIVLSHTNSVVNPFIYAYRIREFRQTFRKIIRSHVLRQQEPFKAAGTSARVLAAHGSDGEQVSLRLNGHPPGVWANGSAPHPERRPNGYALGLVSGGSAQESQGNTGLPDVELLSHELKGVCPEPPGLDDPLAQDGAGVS
Measurement notes: Adenosine receptor activity assay (Table 1), A2A activity
Assay type: biochemical
Condition parameters: read-out: Ave A2A cAMP IC50
IC50 values, listed per item

>>> recorded_result("Cc1cc2nc(N[C@@H](C)c3cncc(F)c3)nc(C(=O)N3CC(CN)C3)c2s1")
"> 500 nM"
>>> recorded_result("CNC1CN(C(=O)c2nc(N[C@@H](C)c3cncc(F)c3)nc3cc(C)sc23)C1")
"> 500 nM"
>>> recorded_result("Cc1cc2nc(N[C@@H](C)c3cncc(F)c3)nc(C(=O)N3CC(CS(C)(=O)=O)C3)c2s1")
"> 500 nM"
>>> recorded_result("O=C(c1nc(NCc2cccc(F)c2)nc2ccsc12)N1CC[C@@H](O)C1")
"100 to 500 nM"

Value of measured IC50 for the entry C[C@H](Nc1nc(C(=O)NCc2ccc(C(F)(F)F)nc2)c2sccc2n1)c1ccccn1 : 100 to 500 nM

Value of measured IC50 for the entry C[C@H](Nc1nc(C(=O)N[C@H](C)c2cccnc2)c2sccc2n1)c1cccnc1 : > 500 nM

Value of measured IC50 for the entry Cc1cc2nc(N[C@@H](C)c3cncc(F)c3)nc(C(=O)N3CC(NC(=O)OC(C)(C)C)C3)c2s1 : 10 to 50 nM

Value of measured IC50 for the entry COc1cncc(CNc2nc(C(=O)N3CCCC3)c3sccc3n2)c1 : > 500 nM
